SYSTEM UNDER TEST: human P2X3 receptor (Homo sapiens (Human))
Sequence (P56373 whole entry): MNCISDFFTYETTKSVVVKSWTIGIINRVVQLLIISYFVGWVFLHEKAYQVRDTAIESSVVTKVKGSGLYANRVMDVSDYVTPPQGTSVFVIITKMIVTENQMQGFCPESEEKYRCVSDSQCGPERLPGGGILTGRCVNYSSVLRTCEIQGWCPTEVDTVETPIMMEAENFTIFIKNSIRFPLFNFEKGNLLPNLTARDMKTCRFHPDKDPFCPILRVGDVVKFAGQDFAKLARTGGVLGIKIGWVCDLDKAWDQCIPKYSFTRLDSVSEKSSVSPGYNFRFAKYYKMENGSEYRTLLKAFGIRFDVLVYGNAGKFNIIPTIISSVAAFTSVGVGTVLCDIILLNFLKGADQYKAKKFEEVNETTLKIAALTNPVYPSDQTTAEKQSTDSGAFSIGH
PROCEDURE TEXT: Evaluation of human P2X3 receptor inhibitory activity (Fluo-3 calcium fluorescence, FDSS 3000, ATP stimulation);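 also: stimulus was 50 nM ATP with fluorescence followed for 3 min, and the response per well was peak post-ATP fluorescence divided by the reading at measurement start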
Format: cell-based
SETUP CONDITIONS: C6BU-1 cells stably expressing human P2X3 receptor
Readings of IC50 for the listed compounds
Give the number; nM is assumed, so skip it.

COC(=O)[C@@H](C)Cn1c(=O)[nH]/c(=N\c2ccc(CCO)cc2)n(Cc2ccc(Cl)cc2)c1=O 471
Cc1[nH]c2ccc(/N=c3\[nH]c(=O)n(CCCO)c(=O)n3Cc3ccc(Cl)cc3)cc2c1C 5
CCOC(=O)CCCn1c(=O)[nH]/c(=N\c2ccc(O)cc2)n(Cc2ccc(C)cc2)c1=O 732

Please look at the following compound next.
Task item: Give recorded IC50. CCn1c(=O)[nH]/c(=N\c2ccc(Oc3ccnc(C(=O)OC)c3)cc2)n(CC2CCC(C)(C)CC2)c1=O
Reply: 9

These measurements were taken from patent US9718790B2.
